biological target: Cytochrome P450 3A4 (Homo sapiens) (UniProt P08684); test: Cytochrome panel assay with activity outcomes; settings: recombinant CYP, pro-luciferin dealkylation, luminescence, p450-cyp3a4; series mostly up to 57.1 µM
Sequence (P08684 whole entry, looked up): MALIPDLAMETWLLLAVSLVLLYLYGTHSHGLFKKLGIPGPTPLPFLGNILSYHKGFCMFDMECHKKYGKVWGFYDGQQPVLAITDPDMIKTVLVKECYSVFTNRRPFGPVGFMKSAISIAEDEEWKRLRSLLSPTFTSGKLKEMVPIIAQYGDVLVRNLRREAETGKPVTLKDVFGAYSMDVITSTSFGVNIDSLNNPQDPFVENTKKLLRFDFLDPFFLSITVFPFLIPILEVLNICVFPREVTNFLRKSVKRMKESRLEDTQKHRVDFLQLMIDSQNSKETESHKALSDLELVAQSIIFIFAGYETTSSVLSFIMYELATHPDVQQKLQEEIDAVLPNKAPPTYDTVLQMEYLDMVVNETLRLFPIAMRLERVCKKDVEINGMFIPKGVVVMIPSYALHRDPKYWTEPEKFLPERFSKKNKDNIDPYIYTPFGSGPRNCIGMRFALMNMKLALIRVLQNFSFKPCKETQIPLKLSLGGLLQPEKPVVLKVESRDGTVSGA
About 5,100 (32%) of roughly 16,000 compounds were called active. About 25% were inconclusive and are not listed. The call rests on the fitted dose curve; in most records, active means well fitted curve in the direction sought with a large enough effect; inconclusive means small, poorly fitted or top-dose-only effect, or effect the other way; inactive means no such curve, though single readings can be large or run the other way. Some of the results follow.
Labels: true (1) = active, false (0) = inactive

[
  {
    "compound": "COc1ccc(NC(=O)c2cc(C(C)C)on2)cc1OC",
    "study-target": "Cytochrome P450 3A4 (Homo sapiens) (UniProt P08684)",
    "category-label": "false (0)"
  },
  {
    "compound": "CN(C)CC(O)COc1ccc(C(C)(C)c2ccc(OCC(O)CN(C)C)cc2)cc1 (centres undefined)",
    "study-target": "Cytochrome P450 3A4 (Homo sapiens) (UniProt P08684)",
    "category-label": "false (0)"
  },
  {
    "compound": "O=C(c1ccco1)N1CCC2(CCCN(C(c3ccccc3)c3ccccc3)C2)CC1",
    "study-target": "Cytochrome P450 3A4 (Homo sapiens) (UniProt P08684)",
    "category-label": "true (1)"
  },
  {
    "compound": "CC1(C)SC(=S)N(NC(=O)Nc2ccccc2)C1N(O)C(=O)Nc1ccccc1 (centres undefined)",
    "study-target": "Cytochrome P450 3A4 (Homo sapiens) (UniProt P08684)",
    "category-label": "true (1)"
  },
  {
    "compound": "COc1ccc(OC)c(NC(=O)CSCc2cnn(-c3ccccc3)c2-n2cccc2)c1",
    "study-target": "Cytochrome P450 3A4 (Homo sapiens) (UniProt P08684)",
    "category-label": "true (1)"
  },
  {
    "compound": "CC(=O)N(CC(=O)O)c1ccccc1C(=O)O",
    "study-target": "Cytochrome P450 3A4 (Homo sapiens) (UniProt P08684)",
    "category-label": "false (0)"
  },
  {
    "compound": "COc1ccccc1-c1nnc(SCc2nc3ccccc3s2)n1C",
    "study-target": "Cytochrome P450 3A4 (Homo sapiens) (UniProt P08684)",
    "category-label": "true (1)"
  },
  {
    "compound": "CN(C)c1ccc(/C=C2/C(=O)Nc3ccccc32)cc1",
    "study-target": "Cytochrome P450 3A4 (Homo sapiens) (UniProt P08684)",
    "category-label": "true (1)"
  },
  {
    "compound": "COc1ccc2[nH]cc(CCNc3ncncc3-c3cccnc3)c2c1",
    "study-target": "Cytochrome P450 3A4 (Homo sapiens) (UniProt P08684)",
    "category-label": "true (1)"
  },
  {
    "compound": "COc1ccccc1-n1c(SCC(=O)Nc2ccccc2F)nc2[nH]ncc2c1=O",
    "study-target": "Cytochrome P450 3A4 (Homo sapiens) (UniProt P08684)",
    "category-label": "true (1)"
  },
  {
    "compound": "COc1cc(/C=N/Nc2snc(SC)c2C#N)cc(OC)c1OC",
    "study-target": "Cytochrome P450 3A4 (Homo sapiens) (UniProt P08684)",
    "category-label": "true (1)"
  },
  {
    "compound": "COc1ccc(/C=N/Nc2snc(SC)c2C#N)cc1OC",
    "study-target": "Cytochrome P450 3A4 (Homo sapiens) (UniProt P08684)",
    "category-label": "true (1)"
  },
  {
    "compound": "CC(C)NC[C@H](O)COc1cccc2ccccc12",
    "study-target": "Cytochrome P450 3A4 (Homo sapiens) (UniProt P08684)",
    "category-label": "false (0)"
  },
  {
    "compound": "C/C(=N\\NC(=O)c1[nH]c2c([N+](=O)[O-])cc(C)cc2c1-c1ccccc1)c1cccnc1",
    "study-target": "Cytochrome P450 3A4 (Homo sapiens) (UniProt P08684)",
    "category-label": "true (1)"
  },
  {
    "compound": "O=[N+]([O-])c1c(NCCO)cc(Sc2nc3ccccc3s2)c2nonc12",
    "study-target": "Cytochrome P450 3A4 (Homo sapiens) (UniProt P08684)",
    "category-label": "true (1)"
  },
  {
    "compound": "O=C(O)COC(=O)Cc1ccccc1Nc1c(Cl)cccc1Cl",
    "study-target": "Cytochrome P450 3A4 (Homo sapiens) (UniProt P08684)",
    "category-label": "false (0)"
  },
  {
    "compound": "N#C/C(=C\\c1ccc(O)c(O)c1)C(N)=O",
    "study-target": "Cytochrome P450 3A4 (Homo sapiens) (UniProt P08684)",
    "category-label": "false (0)"
  },
  {
    "compound": "Cc1cccc(NC(=S)NNC(=O)CCn2cc(C)cn2)c1",
    "study-target": "Cytochrome P450 3A4 (Homo sapiens) (UniProt P08684)",
    "category-label": "false (0)"
  },
  {
    "compound": "COc1ccc2[nH]cc(CCNc3ncncc3-c3cccc(NS(C)(=O)=O)c3)c2c1",
    "study-target": "Cytochrome P450 3A4 (Homo sapiens) (UniProt P08684)",
    "category-label": "true (1)"
  },
  {
    "compound": "O=C(Oc1ccccc1[N+](=O)[O-])c1cccnc1",
    "study-target": "Cytochrome P450 3A4 (Homo sapiens) (UniProt P08684)",
    "category-label": "false (0)"
  },
  {
    "compound": "C=CCn1c(=O)c2c(nc(-c3ccc(S(=O)(=O)O)cc3)n2C)n(C)c1=O",
    "study-target": "Cytochrome P450 3A4 (Homo sapiens) (UniProt P08684)",
    "category-label": "false (0)"
  },
  {
    "compound": "Cc1cccc(CSCCNC(=O)c2ccc(N(C)S(=O)(=O)c3ccccc3)cc2)c1",
    "study-target": "Cytochrome P450 3A4 (Homo sapiens) (UniProt P08684)",
    "category-label": "true (1)"
  },
  {
    "compound": "CS(=O)(=O)N(Cc1cc2ccccc2[nH]c1=O)C1CCCCC1",
    "study-target": "Cytochrome P450 3A4 (Homo sapiens) (UniProt P08684)",
    "category-label": "true (1)"
  },
  {
    "compound": "CCN(CC)CCNC(=O)c1cc(Cl)c(N)cc1OC",
    "study-target": "Cytochrome P450 3A4 (Homo sapiens) (UniProt P08684)",
    "category-label": "false (0)"
  }
]
